Assay: In vivo metabolism of [14C]COMPOUND I in Sprague-Dawley rats, single oral 5 mg/kg dose
Parameters: species or system rat
Conditions: Sprague-Dawley, rat; male rats, 1 hr, 5 mg/kg oral; mean brain radioactivity x percentage of COMPOUND I in pooled sample; read-out: Brain COMPOUND I Concentrations
Experimental: Dose preparation, animal dosing, and specimen collection were performed at Wyeth Research, Collegeville, Pa. The vehicle contained 2% (w/v) polysorbate 80, NF and 0.5% (w/v) methylcellulose (4000 cps) in water. […] Three pre- and post-dose aliquots (100 μL) were taken for the determination of radiochemical purity, drug and radioactivity concentrations and specific activity (see below). […]
endpoint: concentration at 1 hr (ng/g)
Give the value in ng/g but do not write ng/g after it.

Query :: Would you kindly share the measured concentration at 1 hr for `COc1cc(N2CCN(C3CCN(c4ccc(F)c5cccnc45)CC3)CC2)c2ncccc2c1` ?
Result :: 40.9
